Measured GI50 of individual entries
system: COLO 205; experiment: NCI tumour cell line growth inhibition, 48 h
Active and inactive are the calls of the source. No stated cut-off is given here; in the data, active = GI50 up to about 1.1 µM and inactive = higher.

Solved entries (count: 5):
Cc1ccc(/C=C/C(=O)c2cc(CN(C)C)c(O)c(CN(C)C)c2)cc1: 10.6 µM (inactive)
CCOC(=O)c1cc2cc(C)cc(C(=O)c3ccc([N+](=O)[O-])cc3)c2[nH]1: > 100 µM (inactive)
Cc1c(Cl)cccc1NC(=O)C(=O)C(C(=O)c1ccccc1-c1ccccc1)C1OC(=O)c2ccccc21 (centres undefined): 20.2 µM (inactive)
NNC(=O)N/N=C1\C(=O)N(c2nccs2)C(=O)C(=O)C1c1nc2ccccc2s1 (centres undefined): > 100 µM (inactive)
CC(=O)NC1C(OCc2ccccc2)OC(CO)C(O)C1OC(C)C(=O)NC(C(=O)N[C@@H](CCC(=O)NCCNCCNc1c2ccccc2nc2cccc([N+](=O)[O-])c12)C(N)=O)C(C)C (some centres undefined): 20.1 µM (inactive)

// fetch GI50 given entry CC(C)(C)OC(=O)NCCC(=O)NC1(c2cc3ccccc3s2)CCCCC1 17.5 µM (inactive)

---

test system: T47D; assay: NCI tumour cell line growth inhibition, 48 h
Activity calls are given as the source filed them. No stated cut-off is given here; in the data, active = GI50 up to about 1.1 µM and inactive = higher.
Observation type: GI50

Example entries begin here.
O=C1N[C@H]2c3c(Cl)sc(Cl)c3/C(=N/O)[C@H]2O1: > 100 µM (inactive)
O=c1c2cc([N+](=O)[O-])ccc2nc2n1CCCCC2: > 100 µM (inactive)
COc1ccc(C)cc1N1C(=O)C2ON(Cc3ccc(CC(N)=O)cc3)C(c3c4ccccc4c(Cl)c4ccccc34)C2C1=O (centres undefined): 27.4 µM (inactive)
COc1cc(C2c3cc4c(cc3[C@@H](Nc3ccc(F)cc3)C3COC[C@H]23)OCO4)cc(OC)c1O (some centres undefined): 1.74 µM (inactive)
CCCCCCCCCCCCC(=O)NCC(=O)NC(Cc1ccccc1)C(=O)Oc1ccc([N+](=O)[O-])cc1 (centres undefined): 92.9 µM (inactive)
O=C1OCc2c1cc1cc3c(cc1c2-c1ccc2c(c1)OCO2)OCO3.O=C1OCc2cc3cc4c(cc3c(-c3ccc5c(c3)OCO5)c21)OCO4: 24.5 µM (inactive)

Return GI50 for the following molecule: CC(C)/C(Cl)=N\OC(NC(=O)P(=O)(c1ccccc1)c1ccccc1)(C(F)(F)F)C(F)(F)F 10.9 µM (inactive)

Give the measured GI50 for CC(C)(C)OC(=O)NCCC(=O)NC1(c2cc3ccccc3s2)CCCCC1 8.05 µM (inactive)

Output measured GI50 for this item: C#CCOC(=O)C(N)CCCNC(=N)N (centres undefined) > 100 µM (inactive)

---

system: NCI-H460; experiment: NCI tumour cell line growth inhibition, 48 h
Activity calls are given as the source filed them. No stated cut-off is given here; in the data, active = GI50 up to about 1.1 µM and inactive = higher.
Observation type: GI50

Cc1ccc(/C=N/n2c(Cc3ccccc3)n[nH]c2=O)cc1: > 100 µM (inactive)

Consider the record given below.
Report measured GI50 on NCI-H460; entry: CN(CCN(C)C(=S)NN)C(=S)NN > 100 µM (inactive)

---

system: OVCAR-4; experiment: NCI tumour cell line growth inhibition, 48 h
Calls of active or inactive are those of the source. Cut-off read from the data, not from the text of the source: active = GI50 up to about 1.1 µM and inactive = higher.
Observation type: GI50

CCOc1ccc(C(c2c(O)c3ccccc3oc2=O)c2c(O)c3ccccc3oc2=O)cc1: > 100 µM (inactive)

Okay, now this compound:
Write down GI50 measured for item CCOC(=O)c1cc2cc(C)cc(C(=O)c3ccc([N+](=O)[O-])cc3)c2[nH]1 > 100 µM (inactive)

---

tested on: 786-0; assay: NCI tumour cell line growth inhibition, 48 h
The source made the active and inactive calls. Rule as the data show it: active = GI50 up to about 1.1 µM and inactive = higher.
Parameter call: string, one of class 1 for active, class 0 for inactive

O=C(Nc1ccccc1)c1cc(S(=O)(=O)NC2=Nc3ccc(Cl)cc3C(c3ccccc3)N2)c(SSc2cc(Cl)c(C(=O)Nc3ccccc3)cc2S(=O)(=O)NC2=Nc3ccc(Cl)cc3C(c3ccccc3)N2)cc1Cl (stereo unspecified): class 0
Cc1nc(Nc2ccc(Cl)c(Cl)c2)sc1C(=O)/C=C/c1ccc2c(c1)OCO2: class 0
CCOP(=O)(OCC)C(c1ccccc1)N(C(=O)NC(F)(F)F)c1cccc(F)c1 (stereo unspecified): class 0
CCCCCCCCCCCCC(O)[C@H]1CC[C@H](C(O)CCCCCC(=O)CCCCC2CC(C(C)=O)C(=O)O2)O1 (stereo partly specified): class 0
COC1OC(CO)C(O)C1N (stereo unspecified): class 0
C/C(=N/O)c1cccc(Nc2nc3ccccc3c3[nH]c4ccccc4c23)c1: class 0

In this assay, the call recorded for CC(C)N1CN(C(C(=O)N[C@@H]2C(=O)N3C2SC(C)(C)C3C(=O)O)c2ccccc2)CSC1=S (stereo partly specified) was what? class 0

Hi, sorry to bother you, what did the test record for S=C1C=C(c2ccccc2)Sc2ccccc2N1 ? class 0

# outcome recorded in this test, key = O=C1NCCCC12CCCNC2=O class 0

Record lookup: outcome of this test for c1ccc(N2CCN(CCCN3CCc4c([nH]c5ccccc45)C3c3cccnc3)CC2)cc1 (stereo unspecified) ? class 0

Please indicate how the test categorized CN1CCC2(CC1)SC[C@H]1C(=O)N(c3ccc(Cl)cc3)C(=O)N12 . class 0

---

GI50 reference
tested on: OVCAR-3; assay: NCI tumour cell line growth inhibition, 48 h
Activity calls are given as the source filed them. No stated cut-off is given here; in the data, active = GI50 up to about 1.1 µM and inactive = higher.

Guide cases for GI50, answers given:
CC(O)CN1c2ccccc2Sc2ccc(Cl)cc21 (stereo not given): > 10 µM (inactive)
CCOC(=O)C(C(=O)OCC)c1ccc([N+](=O)[O-])o1: 5.73 µM (inactive)

// fetch GI50 given entry CC(=O)Nc1ccc(C(=O)N2N=C(C)/C(=C/c3cccc(O)c3)C2=O)cc1 > 100 µM (inactive)

Tell me measured GI50 for S=P1(Oc2ccccc2)NNP2(=NP(N3CC3)(N3CC3)=NP(N3CC3)(N3CC3)=N2)NN1 (stereo not given) please. > 100 µM (inactive)

Report GI50 for COc1ccc(-c2oc3ccccc3c(=O)c2O)cc1OC [3-HYDROXY-3',4'-DIMETHOXYFLAVONE] 47.5 µM (inactive)

---

system: NCI/ADR-RES; assay: NCI tumour cell line growth inhibition, 48 h
Calls of active or inactive are those of the source. Cut-off read from the data, not from the text of the source: active = GI50 up to about 1.1 µM and inactive = higher.
API: response.call in 1 = active, -1 = inactive

N#Cc1nc(C#N)n(C(=O)c2ccccc2)c1NC(=O)c1ccccc1: -1

Lab note: next compound to report on.
Name the outcome recorded for COc1ccc2c(c1)c(=Cc1ccc(N(C)C)cc1)c1cc(-c3ccccc3)[n+](C)n12 in the assay. -1

---

# GI50 per entry
tested on: MDA-MB-435; assay: NCI tumour cell line growth inhibition, 48 h
Active and inactive are the calls of the source. Rule as the data show it: active = GI50 up to about 1.1 µM and inactive = higher.

CCOC(=O)N(C)CCC1CC=CC(=O)C1c1cccc(OC)c1OC (stereo unspecified): 10.6 µM (inactive)
Fc1ccccc1C1SCC2=Nc3ccccc3CN21 (stereo unspecified): > 100 µM (inactive)

Return GI50 for the following molecule: O=NNc1cnc(O)nc1O > 100 µM (inactive)

Tell me its GI50 given COC(=O)C1CCC(=O)N1C(c1ccc(OC)cc1)c1ccc2c(c1)OCO2 (stereo unspecified) as the entry. 7.01 µM (inactive)

Specify measured GI50 for COc1ccc(N/N=C2\CCOc3ccc(C)cc3C2=O)cc1 . 3.18 µM (inactive)

Recall and state the measured GI50 for O=S(=O)(c1ccccc1)n1c2ccc(Br)cc2c2nc3ccccc3nc21 . > 100 µM (inactive)

For the molecule CC(=O)NC1C(OCc2ccccc2)OC(CO)C(O)C1OC(C)C(=O)NC(C(=O)N[C@@H](CCC(=O)NCCNCCNc1c2ccccc2nc2cccc([N+](=O)[O-])c12)C(N)=O)C(C)C (stereo partly specified) , give its reported GI50. 14.1 µM (inactive)

Could you please provide reported GI50 for Cc1cccc(/C=N/NC(=S)NC2CCCCC2)n1 ? Thanks! 33.7 µM (inactive)

Identify measured GI50 associated with Oc1cc(O)c2ccc(-c3ccc(O)c(O)c3)[o+]c2c1 > 100 µM (inactive)

Note GI50 for the molecule shown: CCOP(=O)(OCC)C(c1ccccc1)N(C(=O)NC(F)(F)F)c1cccc(F)c1 (stereo unspecified) > 100 µM (inactive)

Let me know recorded GI50 for Cc1ccc(N2CCC3(CC2)OCCO3)cc1 , thanks. > 100 µM (inactive)

---

test system: HL-60; test: NCI tumour cell line growth inhibition, 48 h
Activity calls are given as the source filed them. No stated cut-off is given here; in the data, active = GI50 up to about 1.1 µM and inactive = higher.
Thanks in advance; please answer with one of these: active, inactive

Answered examples (3):
COc1cc2c3cc1Oc1c(O)c(OC)cc4c1C(Cc1ccc(O)c(c1)Oc1ccc(cc1)CC3N(C)CC2)N(C)CC4 (stereo unspecified): inactive
CCc1cc(Cc2cc(CC)c(NC(=O)C(=O)CC(=O)c3sc(-c4cccnc4)nc3C)c(CC)c2)cc(CC)c1NC(=O)C(=O)CC(=O)c1sc(-c2cccnc2)nc1C: inactive
COC(=O)/C(C#N)=C(\N)c1c(C)c2ccccc2oc1=N: inactive

Could you check what this test reported for CC1CCN(c2cc(-c3cc4ccccc4o3)oc(=O)c2C#N)CC1 ? inactive

Give the logged outcome of this assay for the following compound: Cc1ccc(NC(=O)C(=O)Cc2cc[n+]([O-])cc2)cc1 inactive

What was the test verdict on CC(C)(Cl)C(Br)CCC(C)(Br)C(Br)CBr (stereo unspecified) ? inactive

For COc1cc2c(c(OC)c1OC)-c1ccc(SC)c(=O)cc1C(CC(=O)Oc1cccc([N+](=O)[O-])c1)C2 (stereo unspecified) , what call appears in the results of this test? active

Given CC(C)/C(Cl)=N\OC(NC(=O)P(=O)(c1ccccc1)c1ccccc1)(C(F)(F)F)C(F)(F)F , state the outcome it received in this test. inactive

Dear all, I need the recorded test outcome for CC1=C(C)CC2C(=O)N(c3cc(C(C)(C)C)ccc3C(C)(C)C)C(=O)C2C1 (stereo unspecified) , thank you. inactive

Recorded test call requested for Cc1nc(N)sc1C(=O)Nc1nc[nH]n1 inactive

Hi, sorry to bother you, what did the test record for O=C(N/C(=C\c1cc(Cl)ccc1Cl)c1nc2ccccc2[nH]1)c1ccccc1 ? inactive

// outcome(item) with item = O=C1NCCCC12CCCNC2=O inactive

Field: outcome | Entry: Nc1c(-c2ccccc2[N+](=O)[O-])nc2ccccn12 inactive
